Where these numbers come from: the MegaScale stability set (Tsuboyama et al. 2023)

B1: HEEH_KT_rd6_0790 (parent)
chain: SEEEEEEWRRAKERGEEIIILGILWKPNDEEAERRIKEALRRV

Variants of: B1
protocol details: folding stability dG (cDNA display proteolysis); higher = more stable
reported conditions: PBS, room temperature
Some variants, each annotated with its measured folding stability dG.

sequence text | quantity unit | folding stability dG
SEEEEEEWRRAKERGEEIIILGIEWKPNDEEAERRIKEALRRV | kcal/mol | 1.29
SEEEEEEWRRAKWRGEEIIILGILWKPNDEEAERRIKEALRRV | kcal/mol | 1.78
SEEEEEEWRRAKERGEHIIILGILWKPNDEEAERRIKEALRRV | kcal/mol | 1.89
SEEEEEEWRRAKERGESIIILGILWKPNDEEAERRIKEALRRV | kcal/mol | 2.18
SEEWEEEWRRAKERGEEIIILGILWKPNDEEAERRIKEALRRV | kcal/mol | 3.35
SEEEEEEWRRAKERGEEIIILGILWKPNDYEAERRIKEALRRV | kcal/mol | 2.13
SEEEEEEWRRAKERGEEIVILGILWKPNDEEAERRIKEALRRV | kcal/mol | 2.17
REEEEEEWRRAKERGEEIIILGILWKPNDEEAERRIKEALRRV | kcal/mol | 2.18
SEEEQEEWRRAKERGEEIIILGILWKPNDEEAERRIKEALRRV | kcal/mol | 1.6
SEEEEEEWRRAKERGEEIIILGILWKPNDEEAERRIKEALREV | kcal/mol | 1.75
SEEEEEEVRRAKERGEEIIILGILWKPNDEEAERRIKEALRRV | kcal/mol | 1.12
SCEEEEEWRRAKERGEEIIILGILWKPNDEEAERRIKEALRRV | kcal/mol | 2.63
SEEEEEEWRRAKERGEEIIILGILWKPNDEWAERRIKEALRRV | kcal/mol | 1.5
SEEEEEEWRRAKERGEEIIILGILWKPNDEEAERRIKYALRRV | kcal/mol | 0.909
SEEEEEEWRRAKERGEEIIILGILWKPNDEEAFRRIKEALRRV | kcal/mol | 1.66
SEEENEEWRRAKERGEEIIILGILWKPNDEEAERRIKEALRRV | kcal/mol | 1.83
SEEEEEEWRRAKERGEEIIILGILWKPNDEEAESRIKEALRRV | kcal/mol | 2.02
SEEEEEEWRRAKERGEEIIILGILWKPNDEEAERRIKENLRRV | kcal/mol | 1.01
SEEEEEEWRRAKERGEEIIILGILWKPNDEEAERRIKEALRRW | kcal/mol | 2.45
SEEEEEEWRRAKERGEEIIILGIIWKPNDEEAERRIKEALRRV | kcal/mol | 1.69
SEEEEEEWRRAKERGYEIIILGILWKPNDEEAERRIKEALRRV | kcal/mol | 1.9
SEEEEEEWRRAKERGEEIIILGIYWKPNDEEAERRIKEALRRV | kcal/mol | 1.72
SEEEEEMWRRAKERGEEIIILGILWKPNDEEAERRIKEALRRV | kcal/mol | 2.62
SEEEEEEWRRAKERGEEIIILGILWKPNDEEAERRIKEAARRV | kcal/mol | 1.12
SEEEEEEWRRAKERGEEIIILGILWKPNDEKAERRIKEALRRV | kcal/mol | 1.32
SEEEEEEWRRAKEREEEIIILGILWKPNDEEAERRIKEALRRV | kcal/mol | 1.5
SEEEEEEWRRAKERGEEIAILGILWKPNDEEAERRIKEALRRV | kcal/mol | 1.33
SEEEEEEWRRKKERGEEIIILGILWKPNDEEAERRIKEALRRV | kcal/mol | 1.37
SEEEEEEWRRAKERGEEIEILGILWKPNDEEAERRIKEALRRV | kcal/mol | 1.85
SEEEEEEWRRAKERGEEIIYLGILWKPNDEEAERRIKEALRRV | kcal/mol | 1.5
SEEEEEEWRREKERGEEIIILGILWKPNDEEAERRIKEALRRV | kcal/mol | 1.05
SEEEEEEWRRAKERGEEIIILGILWKPNDEEAERSIKEALRRV | kcal/mol | 1.71
SEFEEEEWRRAKERGEEIIILGILWKPNDEEAERRIKEALRRV | kcal/mol | 2.37
SEEEEEEWRRAKERGEEIIILGILWKPNDEEAERNIKEALRRV | kcal/mol | 1.62
SEEEEEEWRRAKERGEEITILGILWKPNDEEAERRIKEALRRV | kcal/mol | 2.14
SEEEEECWRRAKERGEEIIILGILWKPNDEEAERRIKEALRRV | kcal/mol | 2.59
